System: RARg:RXRa (NR concentration 270 nM, RXRa partner concentration 90 nM)
test.description: PBM binding z-score (relative to random genomic background probes); higher = stronger binding; sequences stand for … in GC…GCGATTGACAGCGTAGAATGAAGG
Would you kindly list PBM binding z-score for each of these sequences?
Give bare numbers.

macromolecule.sequence	target.of.assay	PBM binding z-score
TCATAAAGGTAATACAGGTGAAAGTCGGCATCTA	RARg:RXRa (NR concentration 270 nM, RXRa partner concentration 90 nM)	1.3
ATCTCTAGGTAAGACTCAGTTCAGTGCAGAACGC	RARg:RXRa (NR concentration 270 nM, RXRa partner concentration 90 nM)	0.23
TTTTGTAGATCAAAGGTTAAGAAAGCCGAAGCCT	RARg:RXRa (NR concentration 270 nM, RXRa partner concentration 90 nM)	1.74
TCTGCTAGGTCAACGATGGTCCGCTAATCTGCTA	RARg:RXRa (NR concentration 270 nM, RXRa partner concentration 90 nM)	3.75
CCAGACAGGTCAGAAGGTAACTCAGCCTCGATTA	RARg:RXRa (NR concentration 270 nM, RXRa partner concentration 90 nM)	3.85
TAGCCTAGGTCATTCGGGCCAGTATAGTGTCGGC	RARg:RXRa (NR concentration 270 nM, RXRa partner concentration 90 nM)	3.72

Could you tell me PBM binding z-score for each of these sequences? They are listed below.
1. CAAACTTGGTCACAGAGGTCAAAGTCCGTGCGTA
2. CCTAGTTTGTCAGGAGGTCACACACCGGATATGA
3. CCTACTGCGCCATTCAGAGGTCATTGATCATATG
4. CAAACTAGGTCACGGAGGTCAAAGTCCGTGCGTA
5. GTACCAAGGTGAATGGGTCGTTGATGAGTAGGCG
6. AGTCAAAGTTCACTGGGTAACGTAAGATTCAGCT

Response given:
1: 5.89; 2: 4.61; 3: 3.36; 4: 7.06; 5: 1.28; 6: 5.43

Challenge: Requested read-out: PBM binding z-score. Entry: CAAACTAGGTCAAGATCAAAGTCGGTTTGTGCCA
Response given: 3.45

====

System: RARg:RXRa (NR concentration 270 nM, RXRa partner concentration 90 nM)
test.description: PBM binding z-score (relative to random genomic background probes); higher = stronger binding; sequences stand for … in GC…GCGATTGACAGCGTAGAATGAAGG
Give label 1 when the value for PBM binding z-score is at least 0.7. Give label 0 when it is less.

macromolecule.sequence	target.of.assay	assigned.class
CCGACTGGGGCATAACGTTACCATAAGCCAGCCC	RARg:RXRa (NR concentration 270 nM, RXRa partner concentration 90 nM)	label 0
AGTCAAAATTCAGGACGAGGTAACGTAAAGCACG	RARg:RXRa (NR concentration 270 nM, RXRa partner concentration 90 nM)	label 0
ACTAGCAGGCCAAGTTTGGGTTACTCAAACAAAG	RARg:RXRa (NR concentration 270 nM, RXRa partner concentration 90 nM)	label 0
CCGACTGGGGCAGAAAGTTTACCATACCATCCGG	RARg:RXRa (NR concentration 270 nM, RXRa partner concentration 90 nM)	label 0
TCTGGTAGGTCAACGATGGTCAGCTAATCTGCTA	RARg:RXRa (NR concentration 270 nM, RXRa partner concentration 90 nM)	label 1
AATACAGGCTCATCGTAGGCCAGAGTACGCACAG	RARg:RXRa (NR concentration 270 nM, RXRa partner concentration 90 nM)	label 0

Challenge: Please check the record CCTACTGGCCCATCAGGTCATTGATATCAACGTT and state if its PBM binding z-score is at or above 0.7.
Response given: label 1

Challenge: Hi, just wondering whether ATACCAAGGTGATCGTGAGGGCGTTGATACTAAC shows PBM binding z-score of 0.7 or higher.
Response given: label 0

Challenge: Kindly determine if PBM binding z-score recorded for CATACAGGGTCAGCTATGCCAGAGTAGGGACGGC is above or exactly 0.7.
Response given: label 1
